- EXPERIMENTAL TARGET: T1, recombinant human CD30 extra cellular domain (ECD) protein (human, UniProt P28908 19-379)
- T1 construct: Bought from R&D systems; also called rhCD30; human CD30 ECD
- T1 sequence: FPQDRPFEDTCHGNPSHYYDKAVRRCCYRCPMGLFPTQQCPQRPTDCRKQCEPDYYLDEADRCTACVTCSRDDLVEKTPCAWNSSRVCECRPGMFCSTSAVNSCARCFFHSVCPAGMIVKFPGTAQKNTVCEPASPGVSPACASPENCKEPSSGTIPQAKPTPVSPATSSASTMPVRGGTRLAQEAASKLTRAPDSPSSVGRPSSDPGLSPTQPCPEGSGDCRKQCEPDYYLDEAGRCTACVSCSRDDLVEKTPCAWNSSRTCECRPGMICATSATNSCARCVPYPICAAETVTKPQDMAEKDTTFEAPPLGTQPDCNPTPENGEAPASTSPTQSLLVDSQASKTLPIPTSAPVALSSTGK
- ASSAY SUMMARY: SPR Biacore T200, His-tagged sdAb/Fab captured, 100.0 nM human CD30 as analyte, single curve
Below: a set of entries, each annotated with reported kon.
MEASURED PROPERTY: kon (M⁻¹ s⁻¹)

{"BINDER": "AS47863 sdAb (VHH, Camel sdAb) VHH: QVQLEESGGGSVQAGETLRLSCTASGSTFGDSDMGWYRQAPGNACELVSIISSDGRTYYVDSVKGRFTISQDNAVSTVYLQMNSLKPEDTGVYYCAADLRQYCRDGRCCGYWGQGTQVTVSS", "MEASUREMENT UNITS": "M⁻¹ s⁻¹", "MEAS VALUE": 140000}
{"BINDER": "AS48542 sdAb (VHH, Camel sdAb) VHH: QMQLVESGGGSVQAGETLRLSCTTSAFTFDGPDMAWYRQAPGNECVLVSIISADGRTYYADSVKGRFTISRDNAKNTVFLNLNSLQPEDTAVYYCALDPRKNCRGGYCCANWGPGTQVTVSS", "MEASUREMENT UNITS": "M⁻¹ s⁻¹", "MEAS VALUE": 120000}
{"BINDER": "AS53750 sdAb (VHH, Camel sdAb) VHH: EVQLVESGGGLVQPGGSLRLSCTASGFTDDGPDMAWYRRAPGNECELVSIISADGRTYYTDSVKGRFTISRDNAKNTVFLYLNSLQPEDTAVYYCAPDPRRNCRGGDCCGNWGPGTQVTVSS", "MEASUREMENT UNITS": "M⁻¹ s⁻¹", "MEAS VALUE": 56000}
{"BINDER": "AS48463 sdAb (VHH, Camel sdAb) VHH: QVHLMESGGGSVQAGETLRLSCTASGFTFANSDMGWYRQAPGNACELVSIISSHGGTTYYVDSVKGRFTISRHNAENTVYLRMTSLKPEDTALYYCVADPRSNCRGGYCCGYWGPGTQVTVSS", "MEASUREMENT UNITS": "M⁻¹ s⁻¹", "MEAS VALUE": 340000}
{"BINDER": "AS57659 human Fab (Fab, V domains shown, Human Fab from a synthetic human Fab library, crude protein from E. coli with 6xHistidine tag) VH: EVQLVESGGGLVQPGGSLRLSCAASGFNIYSYYIHWVRQAPGKGLEWVASIYSSYSSTYYADSVKGRFTISADTSKNTAYLQMNSLRAEDTAVYYCARSWFSYPGLDYWGQGTLVTVSS VL: DIQMTQSPSSLSASVGDRVTITCRASQSVSSAVAWYQQKPGKAPKLLIYSASSLYSGVPSRFSGSRSGTDFTLTISSLQPEDFATYYCQQPYYLITFGQGTKVEIK", "MEASUREMENT UNITS": "M⁻¹ s⁻¹", "MEAS VALUE": 82000}
{"BINDER": "AS57911 human Fab (Fab, V domains shown, Human Fab from a synthetic human Fab library, crude protein from E. coli with 6xHistidine tag) VH: EVQLVESGGGLVQPGGSLRLSCAASGFNISSSYIHWVRQAPGKGLEWVAYISSYYSYTYYADSVKGRFTISADTSKNTAYLQMNSLRAEDTAVYYCARGYPYGMDYWGQGTLVTVSS VL: DIQMTQSPSSLSASVGDRVTITCRASQSVSSAVAWYQQKPGKAPKLLIYSASSLYSGVPSRFSGSRSGTDFTLTISSLQPEDFATYYCQQSHALITFGQGTKVEIK", "MEASUREMENT UNITS": "M⁻¹ s⁻¹", "MEAS VALUE": 92000}
{"BINDER": "AS48481 sdAb (VHH, Camel sdAb) VHH: EVQLVASGGGSVQAGETLRLSCTASGFTFADSAMGWYRKGPGNVCDLVAIIRTDGTTYYGDSAKGRFTISRDNAKSTLYLQMNSLKPEDTAVYFCAADRETSFIGGSWCVAKYWDQGTQVTVSS", "MEASUREMENT UNITS": "M⁻¹ s⁻¹", "MEAS VALUE": 86000}
